test.system: T1, wild-type human KIR3DL2 polypeptide (allele *002) (human, UniProt P43630 22-455)
T1 construct: also called WTaKIR3DL2; unmutated wild type KIR3DL2
method.notes: binding to HEK-293T cells transfected with wild-type KIR3DL2

binder	binding result
antibody 10F6 (antibody, V domains shown, Parental murine monoclonal antibody) VH: QIQLVQSGPELKKPGETVRISCKASGYTFTIAGMQWVQKMPGKGLKWIGWINTHSGVPKYAEDFKGRFAFSLETSANIAYLQISNLKNEDTATYFCARGGDEGVMDYWGQGTSVTVS VL: DIVMTQSHKFMSTSVGDRVSITCKASQDVSTAVAWYHQKPGQSPKLLIYWASTRHTGVPDRFSGSGSGTDYTLTISALQAEDLALYYCQQHYNTPWTFGGGTKLEIK	binds
antibody 1E2 (antibody, V domains shown, Parental murine monoclonal antibody) VH: QVQLQQSGAELVRPGVSVKISCKGSGYTFTDYAMNWVKQSHAKSLEWIGVISTYYGDANYNQKFKGKATMTVDKSSSTAYMELARLTSEDSAIYYCALIYYDYDGSYWGQGTTLTVS VL: DVVMTQTPLSLPVSLGDQASISCRSSQSLVHSNGNTYLHWYLQKPGQSPKLLIYKVSNRFSGVPDRFSGSGSGTDFTLKISRVEAEDLGVYFCSQSTHVPPYTFGGGTKLEIK	binds
